These data points were gathered from patent US20090143279A1.

# Tested on: nuOXPHOS transcripts
# Assay type: cell-based, mouse
# STATED CONDITIONS: 20 μM; composite Z-score vs DMSO
Where a SMILES comes first, the peptide text is derived from it. Bridges are numbered along the chain shown (N, C = ends). [ ]: non-standard residue; d: D form. The star is where a group is joined. Ileψ(thiazoline)Cys = CC[C@H](C)[C@H](N)C1=N[C@H](C(=O)*)CS1; dOrn = NCCC[C@@H](N)C(=O)O
If the reported nucOX equals or exceeds 0.2, assign criterion met. If not, assign criterion not met.

COMPOUND	CLASS LABEL
CC(=O)OCC[N+](C)(C)C	criterion met
Oc1ncnc2[nH]ncc12	criterion not met
CN(C)C(=S)SSC(=S)N(C)C	criterion not met
CC(=O)Oc1c(C)c(C)c2c(c1C)CCC(C)(CCCC(C)CCCC(C)CCCC(C)C)O2 (stereo not drawn) [alpha-tochopheryl acetate]	criterion met
Oc1c(Br)cc(Br)c2cccnc12	criterion not met
CCOC(=O)[C@H](CCc1ccccc1)N[C@@H](C)C(=O)N1Cc2ccccc2C[C@H]1C(=O)O	criterion not met
CC[C@H](C)[C@H](N)C1=N[C@H](C(=O)N[C@@H](CC(C)C)C(=O)N[C@H](CCC(=O)O)C(=O)N[C@H](C(=O)N[C@H]2CCCCNC(=O)[C@H](CC(N)=O)NC(=O)[C@@H](CC(=O)O)NC(=O)[C@H](Cc3cnc[nH]3)NC(=O)[C@@H](Cc3ccccc3)NC(=O)[C@H]([C@@H](C)CC)NC(=O)[C@@H](CCCN)NC2=O)[C@@H](C)CC)CS1 [bacitracin] ({Ileψ(thiazoline)Cys}-L[dE]IK[dOrn]I[dF]H[dD]N; lactam 4-C)	criterion met
COC(=O)Nc1nc2ccc(C(=O)c3ccccc3)cc2[nH]1 [mebendazole, reference compound]	criterion met
CC[N+](C)(C)c1cccc(O)c1	criterion not met
COC(=O)/C(=C1/OC(=O)C(c2ccccc2)=C1O)c1ccccc1	criterion not met
CC(=O)CCCCn1c(=O)c2c(ncn2C)n(C)c1=O	criterion met
CC(=O)OCC(COC(C)=O)OC(C)=O	criterion not met
Cc1cc(C2CCCCC2)n(O)c(=O)c1	criterion not met
Nc1ccc(C(=O)NCC(=O)O)cc1	criterion not met
CN(C(=O)CN(CCO)CC(=O)N(C)C(C)(C)Cc1ccccc1)C(C)(C)Cc1ccccc1	criterion not met
C=C[C@H]1CN2CC[C@H]1C[C@H]2[C@H](OC(=O)OCC)c1ccnc2ccc(OC)cc12 [quinine ethyl carbonate]	criterion not met
